The measured values listed here are drawn from ChEMBL document CHEMBL2429829.

Recorded Ki for the following compounds
Assay: Competitive inhibition of aminoglycoside 6'-N-acetyltransferase Ib (unknown origin) expressed in Escherichia coli using kanamycin A as substrate by Lineweaver-Burk plot analysis in presence of acetyl CoA
Give the number; µM is assumed, so skip it.

O=C(O)c1ccccc1-c1ccc(C=C2C(=O)N(c3ccccc3)C(=S)N(c3ccccc3)C2=O)o1 = 12

Now for the compound whose Ki we want.
(Q) // Input: Cc1cccc(N2C(=O)/C(=C/c3ccccc3OCc3ccc(C(=O)O)cc3)C(=O)NC2=S)c1 . Output its Ki only.
(A) 141

---

Recorded pKi for the following compounds
Assay: Inhibition of aminoglycoside 6'-N-acetyltransferase Ib (unknown origin)-mediated acetylation expressed in Escherichia coli using 5 to 72 uM acetyl CoA and 25 uM kanamycin A as substrate preincubated for 10 mins followed by enzyme addition by spectrophotometric analysis
Remember the convention: pKi equals -log10 of concentration in molar.

(Q) // Input: O=C1NC(=O)N(c2ccc(O)cc2)C(=O)/C1=C/c1ccccc1OCc1ccc(C(=O)O)cc1 . Output its pKi only.
(A) 3.53

(Q) // Input: O=C1NC(=O)N(c2ccc(Cl)cc2)C(=O)/C1=C\c1ccco1 . Output its pKi only.
(A) 4.13

---

Recorded inhibition for the following compounds
Assay: Inhibition of aminoglycoside 6'-N-acetyltransferase Ib (unknown origin)-mediated acetylation expressed in Escherichia coli using kanamycin A and acetyl CoA as substrate at 100 uM preincubated for 10 mins followed by enzyme addition by spectrophotometric analysis relative to control
Give the number; % is assumed, so skip it.

O=c1[nH]c(-c2cccc(OCc3ccccc3)c2)nc2sc3c(c12)CCCC3 = 0

(Q) // Input: O=C1NC(=O)N(c2ccc(O)cc2)C(=O)/C1=C/c1ccccc1OCc1ccc(C(=O)O)cc1 . Output its inhibition only.
(A) 30

(Q) // Input: COc1cc(/C=C2\C(=O)NC(=S)N(c3ccccc3)C2=O)ccc1OCc1ccc(C(=O)O)cc1 . Output its inhibition only.
(A) 0

(Q) // Input: Brc1ccc2nc(Nc3cccc4ccccc34)nc(-c3ccccc3)c2c1 . Output its inhibition only.
(A) 0

(Q) // Input: O=C(Nc1ccccc1N1CCCCC1)c1cccc(-c2cc3ccccc3oc2=O)c1 . Output its inhibition only.
(A) 0

---

Assay: Inhibition of aminoglycoside 6'-N-acetyltransferase Ib (unknown origin)-mediated acetylation expressed in Escherichia coli using kanamycin A and acetyl CoA as substrate at 100 uM preincubated for 10 mins followed by enzyme addition by spectrophotometric analysis relative to control
Quantity Measured: inhibition (%)
Give the number; % is assumed, so skip it.

O=C(/C=C/c1cccc2ccccc12)N1CCN(CCN2C(=O)c3cccc4cccc(c34)C2=O)CC1 = 0
O=C(Nc1ccc(Oc2cccnc2)cc1)[C@@H]1CCCCN1Cc1ccc2c(c1)CCO2 = 0
Cc1ccccc1Nc1nnc(-c2ccc(C(=O)NCCO)cc2)c2ccccc12 = 0
O=C(Nc1ccc2c(c1)C(=O)c1ccccc1C2=O)c1cccc([N+](=O)[O-])c1 = 0
Cc1ccc(-c2nnn(CC(=O)Nc3ccc4c(c3)OCCO4)n2)cc1 = 0
O=C(NC1CCCc2c1cnn2-c1ccccc1F)c1ccc(-n2ccnc2)cc1 (centres undefined) = 15
Cc1ccc(N2C(=O)C[C@@H](N3CCN(c4nc5ccccc5s4)CC3)C2=O)c(C)c1 = 0
Cc1ccc(S(=O)(=O)Nc2cc3c(c4ccccc24)O[C@]2(C3)N(C)c3ccccc3C2(C)C)c(C)c1 = 0

Now for the compound whose inhibition we want.
(Q) // Input: O=C1NC(=O)N(c2ccccc2)C(=O)/C1=C\c1ccco1 . Output its inhibition only.
(A) 65

---

Assay: Inhibition of aminoglycoside 6'-N-acetyltransferase Ib (unknown origin)-mediated acetylation expressed in Escherichia coli using 5 to 72 uM acetyl CoA and 25 uM kanamycin A as substrate preincubated for 10 mins followed by enzyme addition by spectrophotometric analysis
pKi: −log10 of the molar value.
Lab note: anything with pKi at or over 4 counts as Y; the rest go in N.

Use these answered entries as a reference point.
Cc1ccc(N2C(=O)NC(=O)/C(=C\c3ccccc3OCc3ccc(C(=O)O)cc3)C2=O)cc1C = N
Cc1ccc(N2C(=O)NC(=O)/C(=C\c3ccccc3OCc3ccc(C(=O)O)cc3)C2=O)cc1 = N

(Q) pKi >= 4 for CCc1ccc(N2C(=O)NC(=O)/C(=C\c3ccccc3OCc3ccc(C(=O)O)cc3)C2=O)cc1 ?
(A) N

(Q) pKi >= 4 for O=C1NC(=O)N(c2ccccc2)C(=O)/C1=C\c1ccco1 ?
(A) Y

---

Assay: Inhibition of aminoglycoside 6'-N-acetyltransferase Ib (unknown origin)-mediated acetylation expressed in Escherichia coli using kanamycin A and acetyl CoA as substrate at 100 uM preincubated for 10 mins followed by enzyme addition by spectrophotometric analysis relative to control
Quantity Measured: inhibition

Worked set:
Cc1ccc2c(c1)CCCN2C(=O)c1cc(-c2ccc3c(c2)OCO3)nc2ccccc12 = 10%
O=C(NCc1ccc(-c2nc3ccccc3o2)cc1)c1cccc(-c2cc3ccccc3oc2=O)c1 = 0%
Cc1ccc(N2C(=O)NC(=O)/C(=C\c3ccc(-c4ccccc4C(=O)O)o3)C2=O)cc1 = 0%
COc1ccc(F)cc1C(=O)C1CCCN(C(=O)c2ccc(Cn3cnnn3)cc2)C1 (stereo not given) = 0%

Now for the molecule whose inhibition we want.
(Q) // Input: O=C(NC(=S)Nc1ccc2c3c(oc2c1)CCCC3)c1ccc2c(c1)OCO2 . Output its inhibition only.
(A) 0%
